z-score overview
# EXPERIMENT: S. cerevisiae RM11-1a growth modifiers, primary screen, strain RM11-1a, OD600, basal, 24 h (AID 1177);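 further: cultures grown under basal conditions with no added stressor; test concentration not given here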
# TEST_SETTINGS: OD600, 24 h, higher = more signal, called active from +8 up or from −8 down
A bare number is all that is needed in reply.

compound=C=CCOC(=O)[C@H]1[C@@H]2C(=O)O[C@@H](c3ccccc3)[C@@H](c3ccccc3)N2[C@@H](c2ccc(OCCOC(=O)[C@H]3C[C@H]4C(=O)NCC(=O)N4[C@H]3c3cccc(OCCO)c3)cc2)[C@]12C(=O)Nc1ccc(I)cc12 quantitative_readout=1.5
compound=C=CCOC(=O)[C@H]1[C@@H]2C(=O)O[C@@H](c3ccccc3)[C@@H](c3ccccc3)N2[C@@H](c2ccc(OCCOC(=O)[C@H]3C[C@H]4C(=O)NCC(=O)N4[C@H]3c3ccc(O)cc3)cc2)[C@]12C(=O)Nc1ccccc12 quantitative_readout=2.99
compound=C=CCNC(=O)[C@@H]1[C@H]2C(=O)O[C@H](c3ccccc3)[C@H](c3ccccc3)N2[C@H](c2ccc(OCCO)cc2)[C@@]12C(=O)N(C(=O)OCCOC)c1ccccc12 quantitative_readout=3.16
compound="CC1C2C(CCCO)=CC(C3C(=O)N(C)C(=O)C23)N1Cc1cccc(OC(F)(F)F)c1 (stereo not drawn)" quantitative_readout=0.481
compound=CCOC(=O)C[C@H]1[C@H](OC(=O)c2cc3ccccc3oc2=O)[C@@H](NC(=O)Cc2ccc(OC)cc2)c2cc(OCCCO)ccc2N1C(=O)Cc1ccc(OC)cc1 quantitative_readout=-1.01

Lab book: z-score of CC[C@@H](O[Si](C#C[Si](C(C)C)(C(C)C)C(C)C)(C(C)C)C(C)C)c1cn([C@H](C)c2ccccc2)nn1 noted as 0.887
